Origin of values: patent US20230382904A1

Let's go through some pIC50 measurements on LZK (Homo sapiens (Human)) together.
pIC50: −log10 of the molar value.
Measured Metric: pIC50

1) C[C@H](NC(=O)c1cc(-c2cc(C(=O)N[C@@H](C)CO)c3nc(N)nn3c2)cs1)c1ccc(F)cc1 [Compound 26]	7.17
2) Nc1nc2ccc(-c3csc(C(=O)NCCCc4ccccc4)c3)cn2n1 [Compound 215]	4.52
3) CC[C@H](NC(=O)c1cc(-c2cc(-c3nnc([C@@H](C)CO)s3)c3nc(N)nn3c2)cs1)c1ccc(F)cc1 [Compound 401]	6.94

I: CC(C)NC(=O)c1cc(-c2csc(C(=O)N(C)[C@@H](C)c3ccc(F)cc3)c2)cn2nc(N)nc12 [Compound 99]
II: CC[C@H](NC(=O)c1cc(-c2cc(C(=O)NC3COC3)c3nc(N)nn3c2)cs1)c1ccccc1 [Compound 75]
Input: For I and II , which recorded pIC50 is lower? Give the chosen item's label as your response.
Output: II

----------
- Experimental Target: LZK (Homo sapiens (Human), UniProt O43283)
- Sequence (O43283 168-409): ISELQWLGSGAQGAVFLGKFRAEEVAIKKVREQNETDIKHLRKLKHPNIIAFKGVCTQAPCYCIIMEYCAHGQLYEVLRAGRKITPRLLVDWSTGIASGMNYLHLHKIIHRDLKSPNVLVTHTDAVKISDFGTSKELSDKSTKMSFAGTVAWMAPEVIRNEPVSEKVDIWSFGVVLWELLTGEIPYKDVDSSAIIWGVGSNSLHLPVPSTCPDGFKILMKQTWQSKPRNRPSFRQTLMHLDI
- Test Description: LZK biochemical assay (TR-FRET, MKK7 phosphorylation)
Measured Metric: IC50 (nM)

// known answers, use as guide
1. C[C@H](NC(=O)c1cc(-c2cc(C(=O)NCC(F)(F)F)c3nc(N)nn3c2)cs1)c1ccccc1 [Compound 62]	10000
2. COc1ccc(C(C)(C)NC(=O)c2cc(-c3cc(C(=O)NC(C)C)c4nc(N)nn4c3)cs2)cc1 [Compound 124]	330
3. C[C@@H](CO)NC(=O)c1cc(-c2csc(C(=O)NC3CCCCC3)c2)cn2nc(N)nc12 [Compound 39]	590
4. Nc1nc2ccc(-c3csc(C(=O)NCc4nc5ccccc5o4)c3)cn2n1 [Compound 246]	4400

a: CC(C)NC(=O)c1cc(-c2csc(C(=O)N[C@H]3CCCc4ccccc43)c2)cn2nc(N)nc12 [Compound 122]
b: CC(C)NC(=O)c1cc(-c2csc(C(=O)NCc3ccccc3)c2)cc2nc(N)nn12 [Compound 149]
Input: For a and b , which recorded IC50 is lower? Give the chosen item's label as your response.
Output: b
(b: 110 nM, a: 360 nM)

P: Cc1cccc(C)c1NC(=O)c1cc(-c2ccn3nc(N)nc3c2)cs1 [Compound 368]
Q: Nc1nc2c(C(=O)NCC(F)(F)F)cc(-c3csc(C(=O)NCc4ccc(F)cc4)c3)cn2n1 [Compound 61]
R: COc1cccc(CNC(=O)c2cc(-c3cc(C(=O)NC4CCNC4)c4nc(N)nn4c3)cs2)c1 (stereo not drawn) [Compound 37]
S: C[C@H](NC(=O)c1cc(-c2cc(C(=O)NC(C)(C)C)c3nc(N)nn3c2)cs1)c1ccc(F)cc1 [Compound 17]
Input: Given 4 molecules, produce a descending ranking by IC50. Write the labels out in the order the request specifies.
Output: P, Q, R, S
(P: 13000 nM, Q: 3700 nM, R: 1250 nM, S: 150 nM)

----------
- Experimental Target: DLK (Homo sapiens (Human), UniProt Q12852)
- Sequence (Q12852 1-520): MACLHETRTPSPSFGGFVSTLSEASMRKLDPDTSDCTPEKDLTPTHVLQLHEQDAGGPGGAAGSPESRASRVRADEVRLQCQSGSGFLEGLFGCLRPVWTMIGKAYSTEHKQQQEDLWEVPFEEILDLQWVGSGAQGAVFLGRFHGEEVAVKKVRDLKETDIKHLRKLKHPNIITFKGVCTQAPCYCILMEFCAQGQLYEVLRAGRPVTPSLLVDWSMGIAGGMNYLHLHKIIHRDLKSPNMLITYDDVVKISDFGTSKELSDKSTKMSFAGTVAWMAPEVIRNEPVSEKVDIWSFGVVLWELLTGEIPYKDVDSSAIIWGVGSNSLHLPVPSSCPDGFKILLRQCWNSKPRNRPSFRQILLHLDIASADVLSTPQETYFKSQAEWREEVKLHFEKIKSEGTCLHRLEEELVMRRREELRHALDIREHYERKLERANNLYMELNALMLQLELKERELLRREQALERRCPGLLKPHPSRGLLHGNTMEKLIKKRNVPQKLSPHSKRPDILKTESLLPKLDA
- Test Description: DLK biochemical assay (TR-FRET, MKK7 phosphorylation)
Measured Metric: IC50 (nM)

1) C[C@H](NC(=O)c1cc(-c2cc(C(=O)NC3COC3)c3nc(N)nn3c2)cs1)c1ccc(F)cc1	160
2) Nc1nc2ccc(-c3csc(C(=O)N[C@@H](CCO)c4ccc(F)cc4)c3)cn2n1	230
3) Cn1ccc(CNC(=O)c2cc(-c3ccc4nc(N)nn4c3)cs2)n1	1800
4) CC[C@H](NC(=O)c1cc(-c2cc(C(=O)NC(C)C)c3nc(N)nn3c2)cs1)c1ccccc1	5.15
5) C[C@H]1CCC[C@H](NC(=O)c2cc(-c3ccc4nc(N)nn4c3)cs2)C1 (single isomer, unassigned)	1200

1: C[C@@H](NC(=O)c1cc(-c2ccc3nc(N)nn3c2)cs1)c1cccc(Cl)c1
2: CC(C)NC(=O)c1cc(-c2csc(C(=O)NC3CCCc4cc(F)ccc43)c2)cn2nc(N)nc12 (centres unmarked)
3: CNS(=O)(=O)c1cc(-c2csc(C(=O)N[C@@H](C)c3ccc(F)cc3)c2)cn2nc(N)nc12
4: CCC[C@H](NC(=O)c1cc(-c2ccc3nc(N)nn3c2)cs1)c1ccccc1
5: Nc1nc2c(C(=O)NCC(F)(F)F)cc(-c3csc(C(=O)NCc4ccc(F)cc4)c3)cn2n1
Input: Given 5 molecules, produce a descending ranking by IC50. Write the labels out in the order the request specifies.
Output: 3, 5, 1, 4, 2

----------
- Experimental Target: LZK (Homo sapiens (Human))
Measured Metric: IC50 (µM)

// known answers, use as guide
1. Nc1nc2ccc(-c3csc(C(=O)NCc4cccs4)c3)cn2n1	11
2. COC[C@H](C)NC(=O)c1cc(-c2csc(C(=O)NCc3ccc(F)cc3)c2)cn2nc(N)nc12	1.6

a: CC[C@@H](NC(=O)c1cc(-c2cc(C(=O)NC(C)C)c3nc(N)nn3c2)cs1)c1ccc(F)cc1
b: Cn1cccc1CNC(=O)c1cc(-c2ccc3nc(N)nn3c2)cs1
Input: Which value of IC50 is greater, the one for a or the one for b ? Give the chosen item's label as your response.
Output: b

P: CC[C@H](NC(=O)c1cc(-c2csc(C(=O)N[C@@H](C)c3ccc(F)cc3)c2)cn2nc(N)nc12)C(F)(F)F
Q: CC(C)NC(=O)c1cc(-c2csc(C(=O)N[C@@H](C)c3nc4ccccc4o3)c2)cn2nc(N)nc12
Input: For P and Q , which recorded IC50 is lower? Give the chosen item's label as your response.
Output: Q

P: Nc1nc2ccc(-c3csc(C(=O)NCc4ccoc4)c3)cn2n1
Q: CC(NC(=O)c1cc(-c2ccc3nc(N)nn3c2)cs1)c1nc2c(s1)CCCC2 (stereo not shown)
Input: For P and Q , which recorded IC50 is lower? Give the chosen item's label as your response.
Output: Q
(Q: 3.1 µM, P: 18 µM)

a: Nc1nc2ccc(-c3csc(C(=O)NCc4cccc(F)c4)c3)cn2n1
b: C[C@H](NC(=O)c1cc(-c2cc(C(=O)NC3CNC(=O)C3)c3nc(N)nn3c2)cs1)c1ccc(F)cc1 (single isomer, unassigned) [Compound 48]
c: Cn1cnc(CNC(=O)c2cc(-c3ccc4nc(N)nn4c3)cs2)c1
d: CCNC(=O)c1cc(-c2csc(C(=O)NCc3ccc(F)cc3)c2)cn2nc(N)nc12
Input: Given 4 molecules, produce a descending ranking by IC50. Write the labels out in the order the request specifies.
Output: c, a, d, b

----------
Let's go through some pIC50 measurements on DLK (Homo sapiens (Human)) together.
pIC50: −log10 of the molar value.
Measured Metric: pIC50

1. Nc1nc2cc(F)c(-c3csc(C(=O)NCc4ccccc4)c3)cn2n1	6.15
2. CCn1cc(CNC(=O)c2cc(-c3ccc4nc(N)nn4c3)cs2)cn1	5.06
3. CCNC(=O)c1cc(-c2ccc3nc(N)nn3c2)cs1	5.46
4. Cc1c(-c2ccc3nc(N)nn3c2)csc1C(=O)NCc1ccc(F)cc1	6.00
5. Nc1nc2ccc(-c3csc(C(=O)NCc4cnc5ccccn45)c3)cn2n1	6.29

a: CC(NC(=O)c1cc(-c2csc(C(=O)N[C@@H](C)c3ccccc3)c2)cn2nc(N)nc12)C(F)(F)F (single isomer, unassigned) [Compound 72]
b: COC(=O)c1cccc(CNC(=O)c2cc(-c3ccc4nc(N)nn4c3)cs2)c1
c: Nc1nc2c(C(F)(F)F)cc(-c3csc(C(=O)NCc4ccc(F)cc4)c3)cn2n1
Input: Number of compounds to sort: 3. Sort criterion: pIC50, ascending. Write the labels out in the order the request specifies.
Output: c, b, a

----------
- Experimental Target: LZK (Homo sapiens (Human), UniProt O43283)
- Test Description: LZK biochemical assay (TR-FRET, MKK7 phosphorylation)
Measured Metric: IC50 (µM)

// known answers, use as guide
1) COC[C@H](C)NC(=O)c1cc(-c2csc(C(=O)N[C@@H](C)c3ccc(F)cc3)c2)cn2nc(N)nc12	1.1
2) Cc1csc(CNC(=O)c2cc(-c3ccc4nc(N)nn4c3)cs2)n1	6.3
3) CCC(C)c1nnc(-c2cc(-c3csc(C(=O)N[C@@H](CC)c4ccc(F)cc4)c3)cn3nc(N)nc23)s1 (stereo partly shown)	3.9
4) C[C@H](NC(=O)c1cc(-c2cc(C(=O)NCC(F)(F)F)c3nc(N)nn3c2)cs1)c1ccc(F)cc1	4.6
5) Cc1cn(C)nc1CNC(=O)c1cc(-c2ccc3nc(N)nn3c2)cs1	17
6) Nc1nc2ccc(-c3csc(C(=O)NCc4cccnc4)c3)cn2n1	28
7) C[C@H](NC(=O)c1cc(-c2cc(C(=O)NC3CNC(=O)C3)c3nc(N)nn3c2)cs1)c1ccc(F)cc1 (single isomer, unassigned) [Compound 47]	3.6

I: C[C@H](NC(=O)c1cc(-c2cc(C(=O)NC3CCNC3)c3nc(N)nn3c2)cs1)c1ccc(F)cc1 (single isomer, unassigned)
II: C[C@H](NC(=O)c1cc(-c2cc(C(=O)N[C@@H](C)CO)c3nc(N)nn3c2)cs1)c1nc2ccccc2o1
Input: Which value of IC50 is greater, the one for I or the one for II ? Give the chosen item's label as your response.
Output: I
